# Test system: MCF7 breast
# method description: NCI tumour cell line growth inhibition, 48 h
endpoint label: TGI

>>> measurement("O=C1CCC2=C(CCC2)N1CCc1ccc2c(c1)OCO2")
"> 100 µM"
>>> measurement("O=S(=O)(NC(=S)Nc1ccccc1)c1ccc(N2N=C3c4ccccc4CC3C2c2ccc(Cl)cc2)cc1 (stereo not drawn)")
"54.3 µM"
>>> measurement("Cc1ccc(O)c(Cc2nc3ccccc3nc2-c2cccc(Br)c2)c1")
"> 100 µM"

###

# Tested on: UACC-257 melanoma
# method description: NCI tumour cell line growth inhibition, 48 h
Catalogue of TGI readings, one per entry.
endpoint label: TGI

>>> measurement("[N-]=[N+]=C1CNC(=O)NC1=O")
"> 100 µM"
>>> measurement("c1ccc(C(CCN2CCCC2)c2ccccn2)cc1 (stereo not drawn)")
"> 100 µM"
>>> measurement("COc1ccc2[nH]c(C(=O)N3CC(CCl)c4ccc([N+](=O)[O-])cc43)cc2c1 (stereo not drawn)")
"> 100 µM"
